assayed target: human ether-à-go-go-related gene (hERG) potassium channel (human, UniProt Q12809);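 also: peak tail current of the secondary pulse compared with the same well before compound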
Sequence (Q12809 whole entry, looked up): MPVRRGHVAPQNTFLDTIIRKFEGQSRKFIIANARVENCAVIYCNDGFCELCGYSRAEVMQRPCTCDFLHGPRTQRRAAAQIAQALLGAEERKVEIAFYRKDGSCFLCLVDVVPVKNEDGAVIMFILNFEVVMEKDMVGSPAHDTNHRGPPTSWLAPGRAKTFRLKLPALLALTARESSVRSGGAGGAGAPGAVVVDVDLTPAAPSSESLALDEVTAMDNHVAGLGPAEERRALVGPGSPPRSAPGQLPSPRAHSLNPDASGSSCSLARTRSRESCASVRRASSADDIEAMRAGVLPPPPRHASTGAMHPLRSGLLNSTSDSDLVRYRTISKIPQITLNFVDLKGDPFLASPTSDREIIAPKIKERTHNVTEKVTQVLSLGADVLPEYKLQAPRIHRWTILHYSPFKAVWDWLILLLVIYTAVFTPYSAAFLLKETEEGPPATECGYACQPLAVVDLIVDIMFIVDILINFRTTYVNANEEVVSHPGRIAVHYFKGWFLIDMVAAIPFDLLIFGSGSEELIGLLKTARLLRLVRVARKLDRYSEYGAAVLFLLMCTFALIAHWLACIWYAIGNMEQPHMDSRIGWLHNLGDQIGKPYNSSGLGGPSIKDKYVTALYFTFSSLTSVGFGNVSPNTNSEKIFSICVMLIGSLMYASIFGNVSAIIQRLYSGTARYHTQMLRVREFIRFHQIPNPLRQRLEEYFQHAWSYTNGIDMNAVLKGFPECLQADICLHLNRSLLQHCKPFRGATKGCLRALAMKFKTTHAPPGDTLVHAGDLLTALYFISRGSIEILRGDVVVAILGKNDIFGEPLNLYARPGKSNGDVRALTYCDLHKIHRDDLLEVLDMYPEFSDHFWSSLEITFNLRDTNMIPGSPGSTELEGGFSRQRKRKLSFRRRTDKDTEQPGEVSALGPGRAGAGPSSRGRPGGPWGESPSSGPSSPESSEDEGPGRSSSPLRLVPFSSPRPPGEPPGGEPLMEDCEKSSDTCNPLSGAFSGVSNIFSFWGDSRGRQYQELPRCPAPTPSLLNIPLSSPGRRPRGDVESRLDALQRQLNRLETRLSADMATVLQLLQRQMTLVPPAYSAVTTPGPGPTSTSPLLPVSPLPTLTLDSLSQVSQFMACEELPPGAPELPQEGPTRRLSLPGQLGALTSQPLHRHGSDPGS
procedure details: primary screen, population patch clamp on CHO cells stably expressing hERG; higher = less effect of the substance
The whole screen tested about 310,000 compounds, of which about 14,000 (4.5%) showed an effect of 50% or more. The effect is printed as a negative number. The sample as a whole holds a higher share of strong results than the screen did.
Assign hERG current change (%, negative = inhibition) at 10uM to each entry below.
Answers are plain numbers, in %.

Previously resolved entries follow.
- C/C(=N\NC(=S)NC1CCCCC1)c1c(F)cccc1F: -35
- Br.N=c1n(CC(=O)c2cccc([N+](=O)[O-])c2)c2ccccc2n1Cc1ccccc1: -17.9
- O=C(Cc1ccccc1)Nc1cccc(-c2nc3ncccc3o2)c1: 13.6
- O=S(=O)(NCc1ccccn1)c1ccc2c(c1)OCCO2: 10.5
- CCOC(=O)/C(C#N)=C/c1cn(CCC(=O)O)nc1-c1ccc(F)cc1: 4.24
- CC(O/N=C/c1ccc(OC(F)F)cc1)C(=O)Nc1cccc(S(=O)(=O)N2CCOCC2)c1 (stereo not drawn): -60.5

Give me hERG current change (%, negative = inhibition) at 10uM for each of these compounds, listed below.
1. Cc1nc2sc3c(=O)[nH]nnc3c2c(C)c1Br
2. CCCCCOc1ccc(NC(=O)CSc2cccc3cccnc23)cc1
3. CN(C)Cc1c(C(=O)N/N=C/C=C/c2ccccc2)nnn1-c1nonc1N
4. O=C(NCc1ccco1)C1CCN(C(=O)c2ccc([N+](=O)[O-])cc2)CC1
5. CC(C)c1cc(C(=O)N2CCCC(CCC(=O)N3CCN(c4ccccn4)CC3)C2)no1 (stereo not drawn)
6. Cc1cc(OC(C)C(=O)NCCN2CCOCC2)c2c(C)c(C)c(=O)oc2c1 (stereo not drawn)
7. CCOC(=O)CC1(c2ccc(OC)c(OC)c2)C(=O)c2ccccc2C1=O
8. COc1ccc(CCNC(=O)CSc2nnc(-c3ccccc3)c3ccccc23)cc1OC

15.5
18.8
-24.9
-53
-36.8
9.89
-1.97
-20

Give me hERG current change (%, negative = inhibition) at 10uM for each of these compounds, listed below.
1. Cc1sc2c(c1C)C(O)=C(C(=O)Nc1ccccc1)S(=O)(=O)N2C
2. CCc1nnc(NC(=O)c2sc3nc4c(cc3c2N)CCCCCC4)s1
3. Cc1ccc(S(=O)(=O)N2C(=O)CCC2C(=O)Nc2ccc3c(c2)OCCO3)cc1 (stereo not drawn)
4. COc1cccc(C(=O)N2CCC(C(=O)NCc3ccco3)CC2)c1
5. O=C(NC1CCS(=O)(=O)C1)c1ccc(S(=O)(=O)N2CCCCC2)cc1 (stereo not drawn)

[4.91, 4.75, 10.6, -14.9, 1.86]

Give me hERG current change (%, negative = inhibition) at 10uM for each of these compounds, listed below.
1. C/C(=N\NC(=S)NCc1ccccc1)c1ccc(Br)cc1
2. CCOc1ccc(S(=O)(=O)NCCC(=O)NCCc2ccc(C(C)C)cc2)cc1
3. O=C(COC(=O)CNC(=O)c1ccc(F)cc1)Nc1cccc(S(=O)(=O)N2CCCC2)c1
4. CN(C)CCCNCCCCNC(=O)/C=N/O
5. Cc1ccc(-c2csc(NC(=O)CSc3nc(C)cc(=O)[nH]3)n2)cc1
6. COc1ccc2[nH]cc(CCNC(=O)Cc3ccc(Cl)cc3)c2c1
7. O=C(NC(=S)NN1CCCCC1c1cccnc1)c1ccc(Cl)cc1Cl (stereo not drawn)

1: 22.8; 2: 3.89; 3: -12; 4: 0.266; 5: 1.07; 6: 2.05; 7: -6.98

Give me hERG current change (%, negative = inhibition) at 10uM for each of these compounds, listed below.
1. O=C(NNS(=O)(=O)c1ccc(F)cc1)c1ccc(O)cc1
2. Cc1ccc(C(=O)N2CCC(C(=O)NCc3ccco3)CC2)cc1
3. O=C(c1ccc(NS(=O)(=O)c2ccccc2)cc1)N1CCCCCC1
4. Br.N=c1n(CCN2CCCCC2)c2ccccc2n1CC(=O)c1cccc([N+](=O)[O-])c1
5. Cc1ccc(/C=C2\C(=O)Nc3ccccc32)o1
6. CN1CCC(=O)N([C@H](CO)Cc2ccccc2)CC1
7. COc1ccc(N2CC(NC(=O)c3cccc4ccccc34)CC2=O)cc1OC (stereo not drawn)

9.17
-11.3
-11.9
-69
5.04
12
-2.85

Give me hERG current change (%, negative = inhibition) at 10uM for each of these compounds, listed below.
1. CC(=O)Nc1cccc(C(=O)Nc2ccc(S(=O)(=O)NC3=NCCCCC3)cc2)c1
2. N#CCc1ccc(NC(=O)c2ccc(S(=O)(=O)N3CCCC3)cc2)cc1

1: 17; 2: 16.9

Give me hERG current change (%, negative = inhibition) at 10uM for each of these compounds, listed below.
1. Cc1ccc(S(=O)(=O)N/N=C/c2ccc(OCC(=O)Nc3ccccc3Cl)cc2)cc1
2. COc1ccccc1N1C(=O)c2cccc3c(N(C)CCO)ccc(c23)C1=O

1.73
5.75

Give me hERG current change (%, negative = inhibition) at 10uM for each of these compounds, listed below.
1. O=C(C[n+]1cccc2ccccc21)c1ccc(Br)cc1.[Br-]
2. COc1cc2c(cc1NC(=O)c1cc(-c3cccnc3)nc3ccc(C)cc13)oc1ccccc12

1: -45.1; 2: 8.86

These data points were gathered from paper PMC4336329.
